# protocolDescription: chemical genetic growth profiling, strain panel (AID 1159580);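 note: tested at 20 µM; growth read once vehicle control cultures reached saturation at 30 °C; 1 = growth at the plate median or of vehicle wells; lower values mean less growth of the strain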
# conditionLabel: S. cerevisiae deletion strains, growth OD, locus YPL051W, strain arl3, hits give low values
The campaign covered roughly 5,500 compounds. About 2,000 (36%) were called active. Not shown: some 18% with an inconclusive outcome. The list shows a part of the results.
recordedEndpoint: normalized growth
Numbers only.

Field: example entries. Status: answers known.
CC(CC(=O)C1OC1(C)C)C1C(=O)CC2(C)C3=CCC4C(C)(C)C(OC5OCC(O)C(O)C5O)CCC45CC35C(O)CC12C (configuration not stated)    1.02
CC(C)=CCCC1(C)C=Cc2c(O)c3c(c(CC=C(C)C)c2O1)OC12C(=CCCC1C(C)(C)O[C@@]2(C/C=C(\C)C(=O)O)C(=O)O)C3=O (some centres not stated)    0.664
C#C[C@]1(O)CCC2C3CCC4=C(CCC(=O)C4)C3CC[C@@]21C (some centres not stated)    0.983

Respectfully, I request normalized growth for each entry included below.
1. OC(CCN1CCCC1)(c1ccccc1)C1CCCCC1 (configuration not stated)
2. Nc1ccc(S(=O)(=O)Nc2ccnn2-c2ccccc2)cc1
3. C[C@H]1[C@H](C)CC[C@]2(CO)CC[C@]3(C)C(=CCC4[C@@]5(C)CC[C@H](O)C(C)(C)C5CC[C@]43C)[C@H]12 (some centres not stated)
4. C[C@@H]1C(=O)O[C@H]2[C@H]1CC[C@@]1(C)C=CC(=O)[C@@]3(C)O[C@@]213
5. COC(=O)Nc1nc2ccc(Sc3ccccc3)cc2[nH]1
6. Clc1ccccc1C(c1ccccc1)(c1ccccc1)n1ccnc1
7. CNCc1ccccc1

1: 0.987; 2: 0.978; 3: 0.998; 4: 1.02; 5: 0.996; 6: 0.0647; 7: 1

Respectfully, I request normalized growth for each entry included below.
1. CC1(C)CCC2(C(=O)O)CCC3(C)C(=CCC4C5(C)CCC(O)C(C)(C)C5C(O)CC43C)C2C1 (configuration not stated)
2. CCC(C)C(=O)O[C@H]1[C@H](O)C2C(CN3CC(C)CCC3[C@@]2(C)O)C2C[C@]34O[C@]5(O)C(OC(=O)C(C)(O)CC)CC[C@@]3(C)C5C(OC(C)=O)[C@@H](OC(C)=O)C4[C@@]21O (some centres not stated)
3. OC(CCN1CCCCC1)(c1ccccc1)C1CCCCC1 (configuration not stated)

1. 0.992
2. 1.01
3. 0.984

Respectfully, I request normalized growth for each entry included below.
1. COc1c(-c2coc3cc4c(cc3c2=O)CC(O)C(C)(C)O4)ccc2c1C=CC(C)(C)O2 (configuration not stated)
2. COC(=O)Nc1nc2ccc(C(=O)c3ccccc3)cc2[nH]1
3. NC(N)=N/N=C/c1c(Cl)cccc1Cl
4. COC(=O)Nc1nc2ccc(S(=O)c3ccccc3)cc2[nH]1 (configuration not stated)

[0.972, 0.869, 0.981, 0.993]

Respectfully, I request normalized growth for each entry included below.
1. O=c1ccc2ccc(O)cc2o1
2. C[C@@H]1CC[C@H]2[C@@H](C)C(=O)O[C@@H]3O[C@@]4(C)CC[C@@H]1[C@]32OO4
3. CCCCCCCCCCCC[C@H](C(=O)O)[C@@H](C)C(=O)O
4. O=c1oc2cc(O)ccc2s1
5. NC(Cc1c[nH]c2ccccc12)C(=O)O (configuration not stated)

[0.997, 0.818, 0.983, 0.999, 1.01]
